System: 996289-038-R-J1-PDC complex spheroid viability;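 further: spheroids exposed to the agents for 7 days before readout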
Experiment: Anticancer human tumor 996289-038-R-J1-PDC patient-derived colon adenocarcinoma cell line growth inhibition [CLK]
Settings: curve of first compound; second compound 1 µM
pIC50: −log10 of the molar value.
Let's look at some molecules and their measured pIC50.

Cn1ncnc1[C@H]1c2n[nH]c(=O)c3cc(F)cc(c23)N[C@@H]1c1ccc(F)cc1 + CNC(=O)c1ccc(Nc2nc(OC3CCCC3)c3c(-c4ccc5nc(C)oc5c4)c[nH]c3n2)c(OC)c1 ... < 7.00
COc1cccc2c1C(=O)c1c(O)c3c(c(O)c1C2=O)CC(O)(C(=O)CO)CC3OC1CC(N)C(O)C(C)O1 (stereo not given) + CN1CCN(c2cc(C(=O)Nc3cc4cc(-c5cnn(C)c5)ccc4cn3)ccn2)CC1 ... > 7.50
CCc1c2c(nc3ccc(O)cc13)-c1cc3c(c(=O)n1C2)COC(=O)[C@]3(O)CC + CN1CCN(c2cc(C(=O)Nc3cc4cc(-c5cnn(C)c5)ccc4cn3)ccn2)CC1 ... > 8.50
O=C(c1cc(Cc2n[nH]c(=O)c3ccccc23)ccc1F)N1CCN(C(=O)C2CC2)CC1 + CN1CCN(c2cc(C(=O)Nc3cc4cc(-c5cnn(C)c5)ccc4cn3)ccn2)CC1 ... > 7.50
CCCS(=O)(=O)Nc1ccc(F)c(C(=O)c2c[nH]c3ncc(-c4ccc(Cl)cc4)cc23)c1F + CN1CCN(c2cc(C(=O)Nc3cc4cc(-c5cnn(C)c5)ccc4cn3)ccn2)CC1 ... > 7.50

Please state recorded pIC50 (tested on 996289-038-R-J1-PDC complex spheroid viability) of Nc1ccccc1NC(=O)c1ccc(CNC(=O)OCc2cccnc2)cc1 + CN1CCN(c2cc(C(=O)Nc3cc4cc(-c5cnn(C)c5)ccc4cn3)ccn2)CC1;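 further: spheroids exposed to the agents for 7 days before readout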
> 7.50

Moving on to C=C(F)C(=O)N1CCN(c2nc(OCC3CCCN3C)nc3c2CCN(c2cccc4cccc(Cl)c24)C3)CC1CC#N (stereo not given) + CNC(=O)c1ccc(Nc2nc(OC3CCCC3)c3c(-c4ccc5nc(C)oc5c4)c[nH]c3n2)c(OC)c1
5.64

Moving on to COc1c(OCCCN2CCOCC2)ccc2c3n(c(=NC(=O)c4cnc(N)nc4)nc12)CCN3 + CNC(=O)c1ccc(Nc2nc(OC3CCCC3)c3c(-c4ccc5nc(C)oc5c4)c[nH]c3n2)c(OC)c1
8.12

Moving on to CC(CO)NC(=O)c1cc(-c2ccc(Cl)cc2)nn(-c2cnn(C)c2)c1=O (stereo not given) + CNC(=O)c1ccc(Nc2nc(OC3CCCC3)c3c(-c4ccc5nc(C)oc5c4)c[nH]c3n2)c(OC)c1
< 5.00

Moving on to O=C(c1cc(Cc2n[nH]c(=O)c3ccccc23)ccc1F)N1CCN(C(=O)C2CC2)CC1 + CNC(=O)c1ccc(Nc2nc(OC3CCCC3)c3c(-c4ccc5nc(C)oc5c4)c[nH]c3n2)c(OC)c1
< 5.00
